This listing pairs molecules with measured Mean logPe.
Experiment: PAMPA permeability, brain polar lipid extract (BPLE) membrane
Conditions: Brain Polar lipid extract membrane, n=3
Provide a numeric answer; units are not to be included.

CC1=NNS(=O)(=O)c2c1ccc(Cl)c2Cl = -5.38
CN1C(C(=O)Nc2ccccn2)=C(O)c2ccccc2S1(=O)=O = -5.64
CCCCOc1cc(C(=O)NCCN(CC)CC)c2ccccc2n1 = -4.19
CC(C)C(=O)Nc1ccc([N+](=O)[O-])c(C(F)(F)F)c1 [flutamide] = -4.24
CC(C)Cc1ccc(C(C)C(=O)O)cc1 (stereo not shown) = -5.12
NC(=O)Cc1cccc(C(=O)c2ccccc2)c1N = -4.67
O=C1NC(=O)C(c2ccccc2)(c2ccccc2)N1 = -4.57
COc1ccc2c(c1)N(C[C@H](C)CN(C)C)c1ccccc1S2 = -4.83
Cn1c(=O)c2c(ncn2C)n(C)c1=O = -5.53
O=C1CN=C(c2ccccc2)c2cc([N+](=O)[O-])ccc2N1 = -4.67

[ask] Which Mean logPe is listed for CC1Cc2ccccc2N1NC(=O)c1ccc(Cl)c(S(N)(=O)=O)c1 (stereo not shown) [indapamide] ?
[reply] -5.19

[ask] What measured Mean logPe goes with `CCn1cc(C(=O)O)c(=O)c2cc(F)c(N3CCNCC3)nc21` ?
[reply] -5.12

[ask] Looking for the measured Mean logPe of Cc1c(OCC(F)(F)F)ccnc1C[S+]([O-])c1nc2ccccc2[nH]1 (stereo not shown) , can you help?
[reply] -4.58

[ask] For `CO/N=C(\C(=O)N[C@@H]1C(=O)N2C(C(=O)O)=C(COC(N)=O)CS[C@H]12)c1ccco1` , what is its reported Mean logPe?
[reply] -5.94

[ask] // query Mean logPe value for entry CC(CCc1ccccc1)NCC(O)c1ccc(O)c(C(N)=O)c1 (stereo not shown)
[reply] -4.65

====

Assay: in vitro
Details: bovine, PAMPA, pH 7.4
endpoint_label: Papp at 4 h, 100 μM (×10⁻⁶ cm/s)
State the answer as a number, implicitly in ×10⁻⁶ cm/s.

[ask] So what does the record say about Papp at 4 h, 100 μM for CC(=O)CC(c1ccccc1)c1c(O)c2ccccc2oc1=O (stereo not shown) [warfarin] ?
[reply] 0.891

====

Assay: PAMPA permeability, heart total lipid extract (HTLE) membrane
Details: Heart total lipid extract membrane, n=3
Kind request: treat -5 as inclusive, so Mean logPe at -5 or higher is yes (1), anything lower is no (0).

CO/N=C(\C(=O)N[C@@H]1C(=O)N2C(C(=O)O)=C(COC(N)=O)CS[C@H]12)c1ccco1 [cefuroxime] = no (0)

[ask] Could you tell me if the measured Mean logPe of CC(C)Cc1ccc(C(C)C(=O)O)cc1 (centres unmarked) [ibuprofen] reaches -5 or more?
[reply] yes (1)

[ask] Exam item: decide whether the reported Mean logPe for CC1=NNS(=O)(=O)c2c1ccc(Cl)c2Cl [PGY0072] is at least -5.
[reply] no (0)

[ask] Does NC(=O)Cc1cccc(C(=O)c2ccccc2)c1N [nepafenac] have a reported Mean logPe of at least -5?
[reply] yes (1)

[ask] Record Cn1c(=O)c2c(ncn2C)n(C)c1=O [caffeine] ; criterion: Mean logPe no lower than -5. Met?
[reply] no (0)

====

Experiment: PAMPA permeability, heart total lipid extract (HTLE) membrane
Conditions: pH 7.4, 4 h, 37 °C; in words (PCA biplot, Figure 11B)
endpoint_label: PAMPA permeability on HTLE

Example cases with answers are listed next.
CN1C(C(=O)Nc2ccccn2)=C(O)c2ccccc2S1(=O)=O = low
CC1=NNS(=O)(=O)c2c1ccc(Cl)c2Cl = low
CC(C)C(=O)Nc1ccc([N+](=O)[O-])c(C(F)(F)F)c1 [flutamide] = high permeability
CC(=O)CC(c1ccccc1)c1c(O)c2ccccc2oc1=O (stereo not drawn) = low
Cn1c(=O)c2c(ncn2C)n(C)c1=O = low

Lab note: next compound to report on.
[ask] Item under review: `CCCCOc1cc(C(=O)NCCN(CC)CC)c2ccccc2n1` . Reported PAMPA permeability on HTLE?
[reply] high permeability

====

Papp at 4 h, 100 μM by entry:
Test: PAMPA permeability, liver polar lipid extract (LPLE) membrane
Settings: bovine, PAMPA, pH 7.4, Mean Pe, n=3, * = not detected at acceptor side, value calculated from limit of detection
Give just the numeric value; ×10⁻⁶ cm/s need not be written.

CC(CCc1ccccc1)NCC(O)c1ccc(O)c(C(N)=O)c1 (stereo not shown) [labetalol] = 19
CC1=NNS(=O)(=O)c2c1ccc(Cl)c2Cl [PGY0072] = 12.2
Cn1c(=O)c2c(ncn2C)n(C)c1=O [caffeine] = 11.3
O=C1NC(=O)C(c2ccccc2)(c2ccccc2)N1 [phenytoin] = 34.6

[ask] Look at this compound and give its reported Papp at 4 h, 100 μM. CC(C)Cc1ccc(C(C)C(=O)O)cc1 (stereo not shown) [ibuprofen]
[reply] 25.1

[ask] I have this compound here, NC(=O)Cc1cccc(C(=O)c2ccccc2)c1N [nepafenac] , and I need its recorded Papp at 4 h, 100 μM.
[reply] 38.6

[ask] Please report the recorded Papp at 4 h, 100 μM for CO/N=C(\C(=O)N[C@@H]1C(=O)N2C(C(=O)O)=C(COC(N)=O)CS[C@H]12)c1ccco1 [cefuroxime] .
[reply] 7.1

[ask] Give the measured Papp at 4 h, 100 μM of CCOC(=O)[C@H](CCc1ccccc1)N[C@@H](C)C(=O)N1[C@H](C(=O)O)C[C@@H]2CCC[C@@H]21 [ramipril] .
[reply] 2.23

[ask] Returns the measured Papp at 4 h, 100 μM for the input compound. Input: CC(C)C(=O)Nc1ccc([N+](=O)[O-])c(C(F)(F)F)c1 [flutamide]
[reply] 29.4

[ask] Return reported Papp at 4 h, 100 μM; argument: CCn1cc(C(=O)O)c(=O)c2cc(F)c(N3CCNCC3)cc21 [norfloxacin]
[reply] 7.17

====

Here, each record is paired with measured Papp at 4 h, 100 μM data.
Assay: PAMPA permeability, liver total lipid extract (LTLE) membrane
Conditions: bovine, PAMPA, pH 7.4
Quick note: give the figure in ×10⁻⁶ cm/s, leave out the unit.

Use these answered entries as a reference point.
CCCCOc1cc(C(=O)NCCN(CC)CC)c2ccccc2n1 [dibucaine] = 28.6
NC(=O)Cc1cccc(C(=O)c2ccccc2)c1N [nepafenac] = 72.9
CC1=NNS(=O)(=O)c2c1ccc(Cl)c2Cl [PGY0072] = 22.2
CC(CCc1ccccc1)NCC(O)c1ccc(O)c(C(N)=O)c1 (centres unmarked) [labetalol] = 38
Cn1c(=O)c2c(ncn2C)n(C)c1=O [caffeine] = 20.3

[ask] Look at this compound and give its reported Papp at 4 h, 100 μM. CC1Cc2ccccc2N1NC(=O)c1ccc(Cl)c(S(N)(=O)=O)c1 (centres unmarked) [indapamide]
[reply] 24.5

[ask] Record request: Papp at 4 h, 100 μM value, item CC(C)C(=O)Nc1ccc([N+](=O)[O-])c(C(F)(F)F)c1 [flutamide]
[reply] 47.9

[ask] # Papp at 4 h, 100 μM lookup, item CN1C(C(=O)Nc2ccccn2)=C(O)c2ccccc2S1(=O)=O [piroxicam]
[reply] 16.3

====

Test: PAMPA permeability, heart polar lipid extract (HPLE) membrane
Conditions: bovine, PAMPA, pH 7.4
Rule: Papp at 4 h, 100 μM of 7 ×10⁻⁶ cm/s or more gives y; anything lower gives n.

CCn1cc(C(=O)O)c(=O)c2cc(F)c(N3CCNCC3)nc21 = n
O=C1NC(=O)C(c2ccccc2)(c2ccccc2)N1 = y
CCCCOc1cc(C(=O)NCCN(CC)CC)c2ccccc2n1 = y
Cn1c(=O)c2c(ncn2C)n(C)c1=O = n

[ask] Determine whether this compound has Papp at 4 h, 100 μM no lower than 7 ×10⁻⁶ cm/s: `NC(=O)Cc1cccc(C(=O)c2ccccc2)c1N`
[reply] y

[ask] Please check the record CC(C)Cc1ccc(C(C)C(=O)O)cc1 (stereo not drawn) and state if its Papp at 4 h, 100 μM is at or above 7 ×10⁻⁶ cm/s.
[reply] y

====

Experiment: PAMPA permeability, heart polar lipid extract (HPLE) membrane
Settings: Heart Polar lipid extract membrane, n=3; * = not detected at acceptor side, value calculated from limit of detection
endpoint_label: Mean Pe

# annotated cases, reported Mean Pe shown
CC(C)c1nc(N(C)S(C)(=O)=O)nc(-c2ccc(F)cc2)c1/C=C/[C@@H](O)C[C@@H](O)CC(=O)O [rosuvastatin] = < 0,46* 10-6 cm/s
CO/N=C(\C(=O)N[C@@H]1C(=O)N2C(C(=O)O)=C(COC(N)=O)CS[C@H]12)c1ccco1 [cefuroxime] = < 1,28* 10-6 cm/s
N=C(N)c1ccc(OCCCOc2ccc(C(=N)N)cc2)cc1 [propamidine] = < 0,73* 10-6 cm/s
NC(N)=Nc1nc(CSCCC(N)=NS(N)(=O)=O)cs1 [famotidine] = < 0,34* 10-6 cm/s

Moving on to another compound below.
[ask] Name the reported Mean Pe value associated with the compound CCOC(=O)[C@H](CCc1ccccc1)N[C@@H](C)C(=O)N1[C@H](C(=O)O)C[C@@H]2CCC[C@@H]21 [ramipril]
[reply] < 0,98* 10-6 cm/s
